- System: LoVo/5-FU (5-FU-resistant strain of LoVo)
- method: MTT cytotoxicity assay on LoVo/5-FU cells
- Format: cell-based
- experimental-conditions: MTT, 48 h treatment
[s4U] = 4-thiouridine base; m = 2'-O-methyl; r = 2'-OH (RNA)
measured-property: IC50 (nM)
Give a bare numeral; the unit nM is implied.

Solved cases (3 shown):
substance | test-result
EC83-M2 mimic: modified EC83 dsRNA; antisense SEQ ID NO: 2 GCCGAAGUGGCGAAAUC[Gm]GUAG, sense SEQ ID NO: 5 CUACCGAUUUCGCCACUUCGGC (antisense GCCGAAGUGGCGAAAUCGGUAG; antisense: sugars from the 5' end r17 m1 r4, backbone not given here; sense: RNA, backbone not given here; tRNA-derived fragment mimic duplex) | 18.3
EC83-M3 mimic: modified EC83 dsRNA; antisense SEQ ID NO: 3 GCCGAAG[s^4U]GGCGAAAUC[Gm]GUAG, sense SEQ ID NO: 6 CUACCGAUUUCGCCACUUCGGC (antisense GCCGAAGUGGCGAAAUCGGUAG; antisense: sugars from the 5' end r17 m1 r4, [s4U] at 8, backbone not given here; sense: RNA, backbone not given here; tRNA-derived fragment mimic duplex) | 23
EC83-M1 mimic: modified EC83 dsRNA; antisense SEQ ID NO: 1 GCCGAAG[s^4U]GGCGAAAUCGGUAG, sense SEQ ID NO: 4 CUACCGAUUUCGCCACUUCGGC (antisense GCCGAAGUGGCGAAAUCGGUAG; antisense: RNA, [s4U] at 8, backbone not given here; sense: RNA, backbone not given here; tRNA-derived fragment mimic duplex) | 54.2

We now examine a further substance.
Input line: I would be grateful if you could share the reported IC50 for EC83 mimic: 22 bp dsRNA; antisense SEQ ID NO: 89 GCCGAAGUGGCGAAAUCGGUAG, sense SEQ ID NO: 183 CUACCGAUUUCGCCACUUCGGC; 5′-t of tRNA-Leu(CAA) (RNA, backbone not given here; tRNA-derived fragment mimic duplex) [22 bp dsRNA; 5′-t of tRNA-Leu(CAA)] .
Output line: 29.5

----------
- Tested on: HCT-8 human ileocecal colorectal adenocarcinoma cell line
- method: MTT cytotoxicity assay on HCT-8 cells
- Type: cell-based
- experimental-conditions: Homo sapiens; HCT-8; MTT, 48 h treatment
measured-property: IC50 (µM)
Write the answer as a number in µM, unit excluded.

Input line: Entry O=c1[nH]cc(F)c(=O)[nH]1 [5-FU, fluorouracil, reference compound] : reported IC50 = ?
Output line: 41.4

----------
- Tested on: HCT-8 human ileocecal colorectal adenocarcinoma cell line
- method: MTT cytotoxicity assay on HCT-8 cells
- Type: cell-based
- experimental-conditions: HCT-8; MTT, 48 h treatment
[s4U] = 4-thiouridine base; m = 2'-O-methyl; r = 2'-OH (RNA)
measured-property: pIC50
Recall that pIC50 is obtained by taking minus log10 of the concentration measured in molar.

Worked set:
substance | system-under-test | test-result
EC83-M3 mimic: modified EC83 dsRNA; antisense SEQ ID NO: 3 GCCGAAG[s^4U]GGCGAAAUC[Gm]GUAG, sense SEQ ID NO: 6 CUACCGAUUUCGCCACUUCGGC (antisense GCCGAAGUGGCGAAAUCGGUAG; antisense: sugars from the 5' end r17 m1 r4, [s4U] at 8, backbone not given here; sense: RNA, backbone not given here; tRNA-derived fragment mimic duplex) | HCT-8 human ileocecal colorectal adenocarcinoma cell line | 7.13
EC83-M2 mimic: modified EC83 dsRNA; antisense SEQ ID NO: 2 GCCGAAGUGGCGAAAUC[Gm]GUAG, sense SEQ ID NO: 5 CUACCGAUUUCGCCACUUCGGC (antisense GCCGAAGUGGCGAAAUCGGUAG; antisense: sugars from the 5' end r17 m1 r4, backbone not given here; sense: RNA, backbone not given here; tRNA-derived fragment mimic duplex) | HCT-8 human ileocecal colorectal adenocarcinoma cell line | 7.23
EC83-M1 mimic: modified EC83 dsRNA; antisense SEQ ID NO: 1 GCCGAAG[s^4U]GGCGAAAUCGGUAG, sense SEQ ID NO: 4 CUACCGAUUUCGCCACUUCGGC (antisense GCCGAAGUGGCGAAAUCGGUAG; antisense: RNA, [s4U] at 8, backbone not given here; sense: RNA, backbone not given here; tRNA-derived fragment mimic duplex) | HCT-8 human ileocecal colorectal adenocarcinoma cell line | 7.11

Input line: Param item = EC83 mimic: 22 bp dsRNA; antisense SEQ ID NO: 89 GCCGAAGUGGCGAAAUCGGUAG, sense SEQ ID NO: 183 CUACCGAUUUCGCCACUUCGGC; 5′-t of tRNA-Leu(CAA) (RNA, backbone not given here; tRNA-derived fragment mimic duplex) [22 bp dsRNA; 5′-t of tRNA-Leu(CAA)] ; retrieve measured pIC50.
Output line: 7.15
